These entries and their values trace back to patent US12246008B2.

Provide the reported IC50 of each item.
Target: NaV1.5 (Homo sapiens, UniProt Q14524)
Sequence (Q14524 whole entry): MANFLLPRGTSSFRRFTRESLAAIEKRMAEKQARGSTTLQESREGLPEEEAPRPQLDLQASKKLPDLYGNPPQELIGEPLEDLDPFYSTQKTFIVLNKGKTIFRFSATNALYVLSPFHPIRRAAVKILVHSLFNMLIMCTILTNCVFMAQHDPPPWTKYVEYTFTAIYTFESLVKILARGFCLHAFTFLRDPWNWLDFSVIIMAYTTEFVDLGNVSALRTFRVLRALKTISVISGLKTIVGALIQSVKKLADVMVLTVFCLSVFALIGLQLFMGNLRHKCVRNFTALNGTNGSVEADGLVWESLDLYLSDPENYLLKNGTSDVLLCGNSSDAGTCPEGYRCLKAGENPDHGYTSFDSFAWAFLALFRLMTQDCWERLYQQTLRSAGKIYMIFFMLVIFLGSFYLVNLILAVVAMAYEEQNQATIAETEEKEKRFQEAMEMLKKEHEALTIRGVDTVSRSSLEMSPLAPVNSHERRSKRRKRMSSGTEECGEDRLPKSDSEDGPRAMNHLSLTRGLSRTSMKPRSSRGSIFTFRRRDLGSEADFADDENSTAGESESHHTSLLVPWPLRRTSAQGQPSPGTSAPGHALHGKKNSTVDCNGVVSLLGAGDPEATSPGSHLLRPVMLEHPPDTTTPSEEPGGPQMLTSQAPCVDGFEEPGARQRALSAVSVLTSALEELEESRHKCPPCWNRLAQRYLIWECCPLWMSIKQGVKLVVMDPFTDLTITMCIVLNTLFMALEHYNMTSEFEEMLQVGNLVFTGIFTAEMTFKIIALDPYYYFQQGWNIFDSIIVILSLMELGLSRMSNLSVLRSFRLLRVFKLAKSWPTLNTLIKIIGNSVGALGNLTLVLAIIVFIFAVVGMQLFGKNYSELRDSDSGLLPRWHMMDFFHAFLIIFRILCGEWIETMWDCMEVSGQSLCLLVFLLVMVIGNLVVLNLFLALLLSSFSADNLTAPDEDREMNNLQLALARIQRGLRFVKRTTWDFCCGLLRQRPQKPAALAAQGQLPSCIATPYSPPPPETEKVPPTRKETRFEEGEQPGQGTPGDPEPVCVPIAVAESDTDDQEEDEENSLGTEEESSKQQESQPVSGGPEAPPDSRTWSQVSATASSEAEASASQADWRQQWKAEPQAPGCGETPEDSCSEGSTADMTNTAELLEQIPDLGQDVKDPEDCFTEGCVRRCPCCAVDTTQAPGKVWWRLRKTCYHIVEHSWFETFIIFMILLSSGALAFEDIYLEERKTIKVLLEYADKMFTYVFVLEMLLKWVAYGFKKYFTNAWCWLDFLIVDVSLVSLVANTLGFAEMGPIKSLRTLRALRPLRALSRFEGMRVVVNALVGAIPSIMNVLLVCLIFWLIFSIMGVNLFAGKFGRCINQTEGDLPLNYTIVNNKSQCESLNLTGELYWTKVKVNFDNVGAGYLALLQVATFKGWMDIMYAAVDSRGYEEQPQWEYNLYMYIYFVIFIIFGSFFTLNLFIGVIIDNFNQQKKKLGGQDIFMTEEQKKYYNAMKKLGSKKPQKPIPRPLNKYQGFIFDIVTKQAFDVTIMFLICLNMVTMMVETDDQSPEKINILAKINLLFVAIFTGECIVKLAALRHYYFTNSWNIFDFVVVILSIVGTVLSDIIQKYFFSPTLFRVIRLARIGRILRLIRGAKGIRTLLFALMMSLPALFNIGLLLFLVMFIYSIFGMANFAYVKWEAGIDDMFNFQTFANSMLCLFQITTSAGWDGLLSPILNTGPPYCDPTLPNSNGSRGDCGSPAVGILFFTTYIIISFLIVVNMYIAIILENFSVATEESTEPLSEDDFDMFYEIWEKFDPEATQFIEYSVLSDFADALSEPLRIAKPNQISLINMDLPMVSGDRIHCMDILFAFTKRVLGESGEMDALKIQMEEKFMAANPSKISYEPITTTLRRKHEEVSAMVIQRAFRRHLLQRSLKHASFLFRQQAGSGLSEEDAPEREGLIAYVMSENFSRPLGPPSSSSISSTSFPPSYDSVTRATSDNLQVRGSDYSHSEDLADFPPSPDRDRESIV
Assay: Qube automated patch-clamp assay, inhibition of sodium current
Type: cell-based
Details: holding potential −80 mV; max concentration tested 33750 nM

Lab note: each compound below needs its IC50 filled in.
1. C[C@@H](N)[C@H](CNc1cc(F)c(S(=O)(=O)Nc2ncns2)cc1CO)CC(N)C1CC1 (some centres unmarked)
2. C[C@@H](N)C(CNc1cc(F)c(S(=O)(=O)Nc2ncns2)cc1F)CC1NC2CCC1C2 (single isomer, unassigned)
3. CC(C)(CCN)C[C@@H](CNc1cc(F)c(S(=O)(=O)Nc2ncns2)cc1F)[C@H](N)C1CC1
4. C[C@@H](N)C(CNc1cc(F)c(S(=O)(=O)Nc2ncns2)cc1F)CC1CCCCC1CCN (single isomer, unassigned) [Example 62]

1. > 33800 nM
2. 13000 nM
3. > 33800 nM
4. > 33800 nM

Quick one: IC50 of CCC(CN)CC(CNc1cc(F)c(S(=O)(=O)Nc2ncns2)cc1F)[C@@H](C)N (single isomer, unassigned) ?
> 33800 nM

###

Exercise: for every item that follows, state its recorded log10 IC50.
Biological target: human Nav1.7 channels stably expressed in HEK 293 cells (Homo sapiens)
Construct: expressed in transfected cells; host or cells: HEK 293
Sequence (Q15858 whole entry): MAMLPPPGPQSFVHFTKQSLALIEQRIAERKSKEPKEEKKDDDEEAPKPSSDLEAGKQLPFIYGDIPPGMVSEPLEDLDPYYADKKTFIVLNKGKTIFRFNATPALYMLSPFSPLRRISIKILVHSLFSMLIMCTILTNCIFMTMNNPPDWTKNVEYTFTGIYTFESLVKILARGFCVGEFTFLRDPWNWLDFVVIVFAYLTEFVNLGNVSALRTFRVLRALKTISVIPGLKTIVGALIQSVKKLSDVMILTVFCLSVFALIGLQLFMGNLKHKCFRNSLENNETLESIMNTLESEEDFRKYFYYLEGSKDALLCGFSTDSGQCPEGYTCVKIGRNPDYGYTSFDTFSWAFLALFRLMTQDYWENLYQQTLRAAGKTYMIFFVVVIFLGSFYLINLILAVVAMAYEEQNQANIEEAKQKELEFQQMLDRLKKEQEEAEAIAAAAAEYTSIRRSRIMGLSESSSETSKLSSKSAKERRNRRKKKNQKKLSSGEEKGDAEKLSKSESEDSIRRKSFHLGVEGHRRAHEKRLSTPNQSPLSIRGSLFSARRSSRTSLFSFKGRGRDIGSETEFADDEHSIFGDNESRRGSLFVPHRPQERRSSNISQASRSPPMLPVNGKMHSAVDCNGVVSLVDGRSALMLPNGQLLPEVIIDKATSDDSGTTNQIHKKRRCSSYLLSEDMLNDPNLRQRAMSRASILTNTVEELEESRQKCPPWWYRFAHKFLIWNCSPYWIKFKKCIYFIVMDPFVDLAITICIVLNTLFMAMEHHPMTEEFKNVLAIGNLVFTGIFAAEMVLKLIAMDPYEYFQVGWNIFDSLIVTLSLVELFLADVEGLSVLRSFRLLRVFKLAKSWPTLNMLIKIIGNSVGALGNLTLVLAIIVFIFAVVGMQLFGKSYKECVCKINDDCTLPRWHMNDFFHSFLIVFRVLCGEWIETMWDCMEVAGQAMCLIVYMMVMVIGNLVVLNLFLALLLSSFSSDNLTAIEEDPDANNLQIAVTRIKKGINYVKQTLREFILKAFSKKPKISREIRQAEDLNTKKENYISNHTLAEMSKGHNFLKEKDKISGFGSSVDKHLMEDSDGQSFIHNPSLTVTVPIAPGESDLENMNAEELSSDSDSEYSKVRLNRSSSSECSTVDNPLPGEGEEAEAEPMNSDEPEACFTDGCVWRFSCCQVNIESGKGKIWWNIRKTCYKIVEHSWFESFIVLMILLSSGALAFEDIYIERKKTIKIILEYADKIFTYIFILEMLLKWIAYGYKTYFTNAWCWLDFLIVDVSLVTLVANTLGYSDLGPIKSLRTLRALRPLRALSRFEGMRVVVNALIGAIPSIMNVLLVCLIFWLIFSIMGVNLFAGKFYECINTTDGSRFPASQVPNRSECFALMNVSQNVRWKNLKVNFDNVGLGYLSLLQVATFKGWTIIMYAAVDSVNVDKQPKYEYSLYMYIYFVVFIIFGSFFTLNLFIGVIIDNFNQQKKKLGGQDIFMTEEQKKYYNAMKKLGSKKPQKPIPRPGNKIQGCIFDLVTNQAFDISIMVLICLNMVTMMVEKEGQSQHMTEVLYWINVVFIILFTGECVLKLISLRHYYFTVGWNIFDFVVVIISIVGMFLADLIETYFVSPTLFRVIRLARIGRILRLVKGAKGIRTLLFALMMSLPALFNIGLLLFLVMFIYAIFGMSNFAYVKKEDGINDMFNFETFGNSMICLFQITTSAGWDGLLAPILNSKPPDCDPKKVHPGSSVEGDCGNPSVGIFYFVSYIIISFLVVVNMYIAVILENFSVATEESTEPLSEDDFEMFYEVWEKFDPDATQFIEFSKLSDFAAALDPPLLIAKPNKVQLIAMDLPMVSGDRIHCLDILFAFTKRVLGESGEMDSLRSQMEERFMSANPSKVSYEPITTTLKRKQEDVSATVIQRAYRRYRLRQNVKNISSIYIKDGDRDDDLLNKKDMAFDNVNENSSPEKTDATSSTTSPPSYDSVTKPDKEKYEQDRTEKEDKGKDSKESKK
Test: Qube automated patch-clamp assay, inhibition of sodium current
Assay type: cell-based
Settings: holding potential −80 mV; max concentration tested 33750 nM; read-out: NaV1.7 (nM); −80 mV
Remember, log10 of IC50, in nM.

Consider the worked cases shown below.
compound: C[C@@H](N)C(COc1cc(F)c(S(=O)(=O)Nc2ncns2)cc1F)CC1(CCN)CCC1 (single isomer, unassigned)
log10 IC50: 3.62

compound: C[C@@H](N)C(CNc1cc(F)c(S(=O)(=O)Nc2ncns2)cc1F)CC1CCCCC1CCN (single isomer, unassigned) [Example 62]
log10 IC50: 1.75

compound: C[C@@H](N)C(CNc1cc(F)c(S(=O)(=O)Nc2ncns2)cc1F)CC1CCCCC1CCN (single isomer, unassigned) [Example 64]
log10 IC50: 4.16

compound: C[C@@H](N)C(CNc1cc(F)c(S(=O)(=O)Nc2ncns2)cc1F)CC1(C)CCC1CN (single isomer, unassigned) [Example 52]
log10 IC50: 4.09

compound: C[C@@H](N)C(CNc1cc(F)c(S(=O)(=O)Nc2ncns2)cc1F)C[C@]1(C)CCC[C@H]1CN (single isomer, unassigned) [Example 98]
log10 IC50: 3.37

For each entry beneath this line, provide reported log10 IC50.
1. COC(CN)C[C@@H](CNc1cc(F)c(S(=O)(=O)Nc2ncns2)cc1Br)[C@@H](C)N (single isomer, unassigned) [Example 82]
2. C[C@@H](N)C(CNc1cc(F)c(S(=O)(=O)Nc2ncns2)cc1F)CC1CC2(CC2)CN1 (single isomer, unassigned)
3. C[C@@H](N)C(CNc1cc(F)c(S(=O)(=O)Nc2ncns2)cc1F)CC1(C)CCC1CN (single isomer, unassigned) [Example 55]
4. C[C@@H](N)[C@H](CNc1cc(F)c(S(=O)(=O)Nc2ncns2)cc1F)CC1(CCN(C)C)CCC1
5. C[C@@H](N)C(CNc1cc(F)c(S(=O)(=O)Nc2ncns2)cc1F)CC1(C)CCC1CN (single isomer, unassigned) [Example 53]
6. C[C@@H](N)C(CNc1ccc(S(=O)(=O)Nc2ncns2)c(F)c1)CC1(CCN)CC(F)(F)C1 (single isomer, unassigned)

1: 3.25; 2: 2.36; 3: 3.03; 4: 1.79; 5: 2.22; 6: 1.58

Please go through the list and note log10 IC50 for each compound.
1. C[C@@H](N)C(CNc1cc(F)c(S(=O)(=O)Nc2ncns2)cc1Br)CC1(CCN)CC(F)(F)C1 (single isomer, unassigned) [Example 57]
2. COC(CN)C[C@@H](CNc1cc(F)c(S(=O)(=O)Nc2ncns2)cc1Br)[C@@H](C)N (single isomer, unassigned) [Example 81]
3. C[C@@H](N)C(CNc1cc(F)c(S(=O)(=O)Nc2ncns2)cc1F)CC1CC(C)(C)CN1 (single isomer, unassigned) [Example 17]
4. C[C@@H](N)C(CNc1cc(F)c(S(=O)(=O)Nc2ncns2)cc1F)CC1CCCCC1CCN (single isomer, unassigned) [Example 65]
5. CC(C)N(CC(CNc1cc(F)c(S(=O)(=O)Nc2ncns2)cc1F)[C@@H](C)N)C[C@@H](C)N (single isomer, unassigned)

1. 1.00
2. 1.94
3. 2.05
4. 2.43
5. 2.32

Provide the reported log10 IC50 of each entry below, same order.
1. C[C@@H](N)C(CNc1cc(F)c(S(=O)(=O)Nc2ncns2)cc1F)CC1CCCC1CN (single isomer, unassigned) [Example 46]
2. C[C@@H](N)C(CNc1cc(F)c(S(=O)(=O)Nc2ncns2)cc1F)CC1CCCC1CN (single isomer, unassigned) [Example 47]
3. C[C@@H](N)C(CNc1cc(F)c(S(=O)(=O)Nc2ncns2)cc1F)CC1CCCC12CNC2 (single isomer, unassigned) [Example 25]
4. C[C@@H](N)[C@@H](CC(C)(C)CCN)C1CCc2cc(S(=O)(=O)Nc3ncns3)c(F)cc2O1 (single isomer, unassigned) [Example 42]
5. CC[C@@H](N)C(CNc1cc(F)c(S(=O)(=O)Nc2ncns2)c(F)c1F)CC1(CCN)CCC1 (single isomer, unassigned) [Example 21]

1. 1.76
2. 3.56
3. 1.92
4. 2.49
5. 2.96

// for each compound below, give its log10 IC50
1. C[C@@H](N)[C@H](CNc1cc(F)c(S(=O)(=O)Nc2ncns2)cc1F)CC(N)C1(C)CC1 (stereo partly shown)
2. C[C@@H](N)[C@H](CNc1ccc(S(=O)(=O)Nc2ncns2)c(F)c1F)CC1(CCN)CCC1

1: 2.17; 2: 1.72

###

Molecular target: human Nav1.6 channels stably expressed in HEK 293 cells (Homo sapiens, UniProt Q9UQD0)
Construct: expressed in transfected cells; host or cells: HEK 293
Assay: Qube automated patch-clamp assay, inhibition of sodium current
Format: cell-based
Conditions: holding potential −65 mV; max concentration tested 33750 nM
Give IC50 for every item shown.

compound: C[C@@H](N)C(CNc1cc(F)c(S(=O)(=O)Nc2ncns2)cc1F)CC1CCCC1CN (single isomer, unassigned) [Example 47]
IC50: > 33800 nM

compound: C[C@@H](N)[C@H](CNc1ccc(S(=O)(=O)Nc2ncns2)c(F)c1)CC(CCN)C1CC1 (single isomer, unassigned) [Example 19]
IC50: > 33800 nM

List the reported IC50 of each compound below.
1. C[C@@H](N)C(CNc1cc(F)c(S(=O)(=O)Nc2ncns2)cc1Cl)CN1CCCC1 (stereo partly shown) [Example 110]
2. CC(C)NCC(CNc1cc(F)c(S(=O)(=O)Nc2ncns2)cc1Cl)[C@@H](C)N (single isomer, unassigned) [Example 37]
3. C[C@@H](N)[C@H](CNc1cc(F)c(S(=O)(=O)Nc2ncns2)cc1-c1nccs1)CC(C)(C)CCN [Example 40]

["> 33800 nM", "> 33800 nM", "11600 nM"]

Would you be so kind as to report IC50 for each listed record?
1. C[C@@H](N)C(CNc1cc(F)c(S(=O)(=O)Nc2ncns2)cc1F)CC1CCCC12CNC2 (single isomer, unassigned) [Example 25]
2. CC(C)C(N)CC(CNc1cc(F)c(S(=O)(=O)Nc2ncns2)cc1Br)[C@@H](C)N (single isomer, unassigned) [Example 109]
3. CC(C)NCC(CNc1cc(F)c(S(=O)(=O)Nc2ncns2)cc1Cl)[C@@H](C)N (single isomer, unassigned) [Example 36]
4. C[C@@H](N)C(CNc1cc(F)c(S(=O)(=O)Nc2ncns2)cc1F)C[C@]1(C)CCC[C@H]1CN (single isomer, unassigned) [Example 99]

> 33800 nM
697 nM
> 33800 nM
> 33800 nM

For each of the compounds below, note its IC50.
1. C[C@@H](N)C(CNc1cc(F)c(S(=O)(=O)Nc2ncns2)cc1Cl)CC1COCCN1 (single isomer, unassigned) [Example 104]
2. Cc1csc(NS(=O)(=O)c2cc(Cl)c(NC[C@H](CC(C)(C)N)[C@@H](C)N)cc2F)n1 [Example 106]
3. C[C@@H](N)[C@@H](CC(C)(C)CCN)C1CCc2cc(S(=O)(=O)Nc3ncns3)c(F)cc2O1 (single isomer, unassigned) [Example 42]
4. C[C@@H](N)[C@H](CNc1cc(F)c(S(=O)(=O)Nc2ncns2)cc1Cl)CC(N)C(F)(F)F (single isomer, unassigned) [Example 2]

1: > 33800 nM; 2: > 33800 nM; 3: > 33800 nM; 4: 13800 nM

###

Molecular target: human Nav1.7 channels stably expressed in HEK 293 cells (Homo sapiens)
Construct: expressed in transfected cells; host or cells: HEK 293
Test: Qube automated patch-clamp assay, inhibition of sodium current
Format: cell-based
Settings: holding potential −75 mV; max concentration tested 33750 nM; read-out: NaV1.7 (nM); −75 mV
readout_kind: log10 of IC50 (log10 of the value in nM)
Scale: decimal log of IC50, IC50 in nM.

// known answers, use as guide
compound: CC(C)N(CC(CNc1cc(F)c(S(=O)(=O)Nc2ncns2)cc1F)[C@@H](C)N)C[C@@H](C)N (single isomer, unassigned) [Example 38]
log10 of IC50: 2.04
//
compound: C[C@@H](N)C(CNc1cc(F)c(S(=O)(=O)Nc2ncns2)cc1Cl)CC1COCCN1 (single isomer, unassigned) [Example 104]
log10 of IC50: 2.48

Each of the following entries comes with a recorded value; kindly state log10 of IC50 for each.
1. C[C@@H](N)[C@H](CNc1cc(F)c(S(=O)(=O)Nc2ccncn2)cc1Cl)CC(C)(C)CCN [Example 12]
2. CCC(CN)CC(CNc1cc(F)c(S(=O)(=O)Nc2ncns2)cc1F)[C@@H](C)N (single isomer, unassigned) [Example 93]
3. C[C@@H](N)C(CNc1cc(F)c(S(=O)(=O)Nc2ncns2)cc1F)C(N)C1CCC1 (single isomer, unassigned) [Example 34]
4. CC(C)(CCN)C[C@@H](CNc1cc(F)c(S(=O)(=O)Nc2ncns2)cc1F)[C@H](N)C1CC1 [Example 28]
5. CC(C)(CCN)C[C@@H](CNc1cc(F)c(S(=O)(=O)Nc2ncns2)cc1Cl)[C@H](N)CC1CC1 [Example 29, bis(2,2,2-trifluoroacetate)]

1: 2.12; 2: 1.20; 3: 1.89; 4: 1.53; 5: 1.98
